Please go through the items and note down their Phytotoxicity.
# Test system: Zea mays
# Test Name: Pre-emergence phytotoxicity against Zea mays (maize) assessed as phytotoxic crop injury visual ratings at 500 g ai/ha measured after 14 days post treatment under upland field conditions
# Format: organism-based
# Conditions Used: in vivo, other, 336 h
One number for each entry, in %.

Consider the reported Phytotoxicity for these compounds:
CC(C)=C1OC(=O)N(c2cc(OC3CCCC3)c(Cl)cc2F)C1=O [PENTOXAZONE] :: 10
C#CCOc1cc(N2C(=O)OC(=C(C)C)C2=O)c(F)cc1Cl :: 10
COc1cc(N2C(=O)OC(=C(C)C)C2=O)c(F)cc1Cl :: 30

For every item below, please supply its Phytotoxicity.
1. CC(C)=C1OC(=O)N(c2cc(O)c(Cl)cc2F)C1=O
2. C#CCSc1cc(N2C(=O)OC(=C(C)C)C2=O)c(F)cc1Cl
3. CC(C)=C1OC(=O)N(c2cc(OC3CCCCC3)c(Cl)cc2F)C1=O
4. CCOc1cc(N2C(=O)OC(=C(C)C)C2=O)c(F)cc1Cl

[0, 0, 10, 10]

State, in one line, measured Phytotoxicity of C#CC(C)Oc1cc(N2C(=O)OC(=C(C)C)C2=O)c(F)cc1Cl (stereo not drawn)
10
